Target: Histone-lysine N-methyltransferase NSD2 (Homo sapiens)
Assay: NSD2 histone methyltransferase inhibitors, primary screen, biochemical, AlphaScreen, single concentration, set 2 (AID 743445)
Details: NSD2 peptide methylation, 120 min, at 12.5 µM, hits give high values
Hit rate of the full screen: of about 310,000 compounds, about 1,700 (0.55%) were called active. Many of the other results were omitted from the sample, so actives are more common in it than they were.
valueKind: inhibition (%)

{"columns": ["compound", "valueKind", "recordedValue"],
 "data": [
  ["COc1cc(C(C)=O)ccc1OC(C)C(=O)Nc1ccc(S(=O)(=O)N2CCCC2)cc1 (stereo not given)", "inhibition", -0.04],
  ["CCNC(=O)C1(C)CCCN(C(=O)c2c(C)noc2C)C1 (stereo not given)", "inhibition", -2.53],
  ["Clc1ccc(-n2c(COc3ccccc3)nnc2SCc2nc3ccccc3[nH]2)cc1", "inhibition", 1.86],
  ["COC(=O)/C=C/C(=O)NCc1ccco1", "inhibition", 0.685],
  ["COCC(C)n1c(SCC(=O)NC2CCCCC2C)nc2ccccc2c1=O (stereo not given)", "inhibition", 52.7],
  ["O=C(Nc1ccccc1)N1CCN(Cc2nc3ccccc3c(=O)[nH]2)CC1", "inhibition", -3.56],
  ["CCOC(=O)C(=O)N(Cc1ccccc1)c1ccccc1C(=O)Nc1cc(OC)ccc1OC", "inhibition", 3.11],
  ["O=C(Cn1c(=O)sc2ccccc21)Nc1ccc2c(c1)OCCO2", "inhibition", 6.04],
  ["CCOc1ccc(Cl)cc1-c1cc(C(=O)NCc2cccs2)[nH]n1", "inhibition", 0.509],
  ["COc1cccc(CSc2nnc(-c3cccnc3)n2Cc2ccccc2)c1", "inhibition", 2.07],
  ["O=[N+]([O-])c1ccccc1Nc1ccc(O)cc1", "inhibition", 81],
  ["O=C(CCS(=O)(=O)c1ccccc1)Nc1ccc(Cl)c(Cl)c1", "inhibition", -0.439],
  ["O=C(Nc1ccccc1[N+](=O)[O-])C1C(c2ccccc2)=C1c1ccccc1", "inhibition", -5.32],
  ["O=[N+]([O-])c1ccccc1NCc1ccc(Cl)cc1", "inhibition", 7.1],
  ["CC(=O)Nc1ccc(S(=O)(=O)N2CCSCC2)cc1", "inhibition", -0.875],
  ["Cc1ccccc1NC(=O)Cn1nnc(-c2ccccc2F)n1", "inhibition", -1.41],
  ["CCOC(=O)c1csc(NC(=O)C2CCCN(S(=O)(=O)c3ccc(Cl)s3)C2)n1 (stereo not given)", "inhibition", 2.06],
  ["Nc1ccn([C@@H]2O[C@H](C(=O)N[C@H]3CCCCNC3=O)[C@@H](O)[C@H]2O)c(=O)n1", "inhibition", -3.79],
  ["O=C(Nc1cc(F)cc(F)c1)OC1CCC12CCC(c1ccccc1)CC2 (stereo not given)", "inhibition", -4.2],
  ["COc1ccc(NC(=O)C2(C)Cc3c(-c4cccc(NC(C)=O)c4)ccnc3O2)cc1OC (stereo not given)", "inhibition", 1.97],
  ["CCN1CCCC1CNC(=O)c1cc2cc(OC)c(OC)cc2[nH]1 (stereo not given)", "inhibition", 17.7],
  ["O=C(Cn1cc(C(F)(F)F)ccc1=O)Nc1ccc2c(c1)OCCO2", "inhibition", 58],
  ["COc1ccc(CSc2nnc(SCC(=O)Nc3ccccc3C(F)(F)F)s2)cc1", "inhibition", 0.831],
  ["Oc1ccc(CNc2ccccc2O)cc1", "inhibition", 85.7],
  ["c1ccc(CNCc2ccc(CNCc3ccccc3)cc2)cc1", "inhibition", 1.25],
  ["C=CCc1cccc2cc(C(=O)Nc3ccc(NC(C)=O)cc3)c(=O)oc12", "inhibition", 52.4],
  ["C=CCc1cccc2cc(C(=O)OCC)c(=O)oc12", "inhibition", 3.09],
  ["CCN1CCCC1CNc1ncnc2c1[nH]c1ccc(F)cc12 (stereo not given)", "inhibition", 74.6],
  ["CCNC(=O)C1(C)CCCN(C(=O)c2ccc3ccccc3n2)C1 (stereo not given)", "inhibition", 104],
  ["COc1ccc(-n2c(SCC(=O)Nc3ccc4c(c3)OCCO4)nnc2-c2ccc(Cl)cc2)cc1", "inhibition", 3.06],
  ["O=C(NC(c1ccc(Cl)cc1)c1cnccn1)C1CCN(Cc2ccc(Cl)cc2)CC1 (stereo not given)", "inhibition", -0.128],
  ["C=CCNC(=O)CCCOc1cccc(C)c1", "inhibition", -2.74],
  ["O=C(NCc1ccco1)C1(c2ccc(Cl)cc2)CCCC1", "inhibition", 3.15],
  ["CCn1c2ccccc2c2cc(NC(=O)CSc3nnc(-c4ccccc4)n3-c3ccc(C)cc3)ccc21", "inhibition", 0.529],
  ["COC(=O)CCCCC1=CCC2C(=O)C=C(O)C2C1 (stereo not given)", "inhibition", 62.2],
  ["CCOC(=O)c1nnn(-c2nc(OC)nc(N(C)C)n2)c1-c1ccccc1", "inhibition", -2.39],
  ["COCCn1c(C)cc(C(=O)CSc2nc3ccccc3c(=O)n2C(C)COC)c1C (stereo not given)", "inhibition", 1.34],
  ["CCOC(=O)c1nnn(-c2nonc2OC)c1-c1ccccc1", "inhibition", 113],
  ["Cc1cc(NS(=O)(=O)c2ccc(NC(=O)CSc3nnc(SCc4ccc(F)cc4)s3)cc2)nc(C)n1", "inhibition", 1.71],
  ["Cc1nc2c(OCc3cccc(Cl)c3)cccn2c1N(C)CC1CC1", "inhibition", 1.55],
  ["C=CCn1c(=NC(=O)c2ccc(S(=O)(=O)N3CCCC3)cc2)sc2cc(NC(C)=O)ccc21", "inhibition", 96.1],
  ["Cc1cc(=O)[nH]c(N/N=C/c2ccc3c(c2)OCCO3)n1", "inhibition", -3.07],
  ["O=C(CSc1nnc(-c2ccccc2)n1Cc1ccco1)Nc1ccccc1-c1ccccc1", "inhibition", 6.7],
  ["O=C(/C=C/c1ccc(Cl)cc1Cl)NCc1ccco1", "inhibition", 57.4],
  ["CC(=O)CC(CC(=O)NC1CCCCC1)c1ccccc1 (stereo not given)", "inhibition", -4.05]
]}
